The reported numbers originate from patent CN111517978A.

System: Propionibacterium acnes ATCC11828 (痤疮丙酸杆菌ATCC11828)
test.summary: Antibacterial action (MIC, FICI) against Propionibacterium acnes ATCC11828 (Table 21)
Format: cell-based
assay.conditions: component A (XP or YS) alone
Returns the class for an entry based on its MIC_A. Class ranges: low class: < 20 ng/mL; middle class: ≥ 20 ng/mL and < 700 ng/mL; high class: ≥ 700 ng/mL

[Q] Into which category would you place "CCOC(=O)C1=C[C@H](OC(CC)CC)[C@@H](NC(C)=O)[C@H](N)C1" ?
[A] middle class

[Q] Next compound up: CCOC(=O)C1=C[C@@H](OC(C)C)[C@H](NC(C)=O)[C@@H](N)C1 [化合物20S]
[A] high class

[Q] Next compound up: CCC(CC)O[C@@H]1C=C(C(=O)O)C[C@H](N)[C@H]1NC(C)=O [化合物10S]
[A] high class

[Q] Next compound up: CCC(CC)O[C@@H]1C=C(C(=O)O)C[C@H](NC(CC(=O)O)C(=O)O)[C@H]1NC(C)=O (mixture of isomers) [化合物10P]
[A] middle class

[Q] Next compound up: "CCOC(=O)C1=C[C@@H](OC(CC)CC)[C@@H](NC(C)=O)[C@H](N)C1"
[A] high class
